Assay: yeast display, Sf9 membrane polyspecificity reagent, FACS + sequencing; frameworks hold sequencing errors
PROPERTY: polyreactivity (PSR sort gate)

Field: example entries. Status: answers known.
ITEM SEQUENCE: QVQLVESAGGLVQAGGSLRLSCAASGFIFVKYVMGWYRQEPGKERELVATISNGVSTNYADSVKGRFTISRDNAKNTVYLQMNSLKPEDTAVYDCNTGSNAWYFSGDYWGQGTQVTVSS
REPORTED: low polyreactivity

ITEM SEQUENCE: QVQLVESGGGLVQAGGSLRLRCAASGIFAFYAMGWYRQAPGKERELVAGIDDGGSTDYADSVKGRFTISRDNAKNTVYLQMNSLKPEDTAVYYCAATERLEVWSRPYVWVTLDYRGQGTQVTVSS
REPORTED: low polyreactivity

ITEM SEQUENCE: QVQLVESGGGLVQAGGSLRLSCAASGRIFGRNAMGWYRQAPGKERELVAAISSSGGTYYADSVKGRFTISRDNAKNTVYLQMNSLKPEDTAVYYCNARVRTQQRWVDYWGQGTQVTVSS
REPORTED: high polyreactivity

ITEM SEQUENCE: QVQLVESGGGLVQAGGRSCAASGSTFRPYAMGWYRQAPGKEREFVAAISWRGGRTYYADSVKGRFTISRDNAKNTVYLQMNSLKPEDTAVYYCAVDPSIYRLSAYYYDYWGQGTQVTVSS
REPORTED: low polyreactivity

ITEM SEQUENCE: QVQLGESGGGLVQAGGSLRLSCAASGRIFVYNAMGWYRQAPGKERQLVAAIRNDGSTNYADSVKGRFTISRDNAKNTVYFQMNSLKPEDTAVYYCAKSVTGWRGLWYTPRNYYWGQGTQVTVSS
REPORTED: high polyreactivity

ITEM SEQUENCE: QVQLVESGGGLVQAGGSLRLSCAASGYTFPRYAMGWYRQAPGKERELVAAITWSGGSTYYADSVKGRFTISRDNAKNTVYLQMNSLKPEDTAVYYCNTDRYHRVDFDYWGQGTQVTVSS
REPORTED: high polyreactivity

ITEM SEQUENCE: QVQLVESGGGLDQAGGSLRLSCAASGSISLNAMGWYRQGPGKEREFVAVITWRVGDTYYADSVKGRITISRDNAKNTVYLQLNSRKPEDSAVYYCAADDLYYQGIYRGSEFDYWGQGTQVTVSS
REPORTED: low polyreactivity

ITEM SEQUENCE: QVQLVESGGGLVQAGGSLRLSCAASGRTLGTYAMGWYRQAPGKERELVAAITSGGSTYYADSVKGRFTISRDNAKNTVYLQMNSLKPEDTAVYYRATYSYYYWGQGTQVTVSS
REPORTED: low polyreactivity

Problem: Would you kindly share the measured polyreactivity (PSR sort gate) for "QVQLVESGGGLVQAGGSLRLSCAASGFILPYYTMGWYRQAPGKERELVAAITYSGASTFYADSVKGRFTISRDNAKNTVYLQMNSLKPEDTAVYYCAKEWSGWYESPLDDGDYDYWGQGTQVTVSS" ?
Solution: low polyreactivity

---

Assay: yeast display, Sf9 membrane polyspecificity reagent, FACS + sequencing; frameworks hold sequencing errors
PROPERTY: polyreactivity (PSR sort gate)

Field: example entries. Status: answers known.
ITEM SEQUENCE: QVQLVESGGGLVQAGGSLRLSCAASGRIFYSYAMGWYRQAPGKERELVAAISSAGSTYYADSVKGRFTISRDNAKNTVYLQMNSLKPEDTAVYYCAAGVTYYRYVSYVGPVPLGFDYWGQGTQVTVSS
REPORTED: high polyreactivity
//
ITEM SEQUENCE: QVQLVESGGGLVQAGGSLRLSCAASGRIFGAYAMGWYRQAPGKEREFVAAITWRGGSTYYADSVKGRFTISRDNAKNTVYLQMNSLKPEDTAVYYCAADQFTGSVWAYYYWGQGTQVTVSS
REPORTED: high polyreactivity
//
ITEM SEQUENCE: QVQLVESGGGLVQAGGSLRLSCAASGSIFRKNAMGWYRQAPGKERELVATISGGGSTTYADSVKGRFTISRDNAKNTVYLQMNSLKPEDTADYYCAARSTWFQIRYGYWGQGTQVTVSS
REPORTED: high polyreactivity
//
ITEM SEQUENCE: QVQLVETGGGLVQAGGSLRLSCAASGSIFFLYAMGWYRQAPGKERELVAAISRTGSTYADSVKGRLTISRDNAKNTVYLQMNSLKPEDTAVYYCDAEYRYYWYGTMNYWGQGTQVTVSS
REPORTED: low polyreactivity
//
ITEM SEQUENCE: QVQLQESGGDLEQAGGSLLLSCTASGTISEVRVMGWYRQAPGKERELVATISYVTITYYADSVKGRFTISRDSEKHRVSADDEPQTGRYRGVLLSYYWGLGTQVTVSS
REPORTED: low polyreactivity
//
ITEM SEQUENCE: QVQLVESGGGLVQAGGSLRLSCAASGSTFRRYAMGWYRQAPGKERELVAAISSGGSTYYADSVKGRFTISRDNAKNTVYLQMNSLKPEDTALYYCAKRPLKRQIPAVGYDYWGQGTQVTVSS
REPORTED: high polyreactivity
//
ITEM SEQUENCE: QVQLVESGGGLVQAGGSLRLSCAASGRIFVKSAMGWYRPAPGQERELVAAITSDGSTSYADSVKGRFTISRDNAKNTVYLQMNSQKPEDTAVYYCAKDFFEHSPVSHTYSSSKYDYWGQGTQVTVSS
REPORTED: low polyreactivity
//
ITEM SEQUENCE: QVQLVESGGGLVQAGGSLRLSCAASGRIFRPYAMGWYRQAPGKERELVAAISVSGVITYYADSVKGRFTISRDNAKNTVYLQMISLKPEDTAVYYCATDYTPRRWGRLYDYWGQGTQVTVSS
REPORTED: low polyreactivity
//
ITEM SEQUENCE: QVQLVESGGGLVQAGGSLRLSCAASGLTLYLYTMGWYRQAPGTERELVASIDSGTSTKYADSVKGRFTISRDNAKNTVYLQMNSLKPEDTAVYYCAAGVWVTRYFGYYYWGQGTQVTVSS
REPORTED: low polyreactivity
//
ITEM SEQUENCE: QVQLVESGGGLVQAGGSLRLSCAASGFIFAYNAMGWYRQAPGKERELVAAISRSGGSTRYADSVKGRFTISRDNAKNTVYLQMNSLKPEDTAVYYCAARSGSWGQGTQVTVSS
REPORTED: high polyreactivity

# evaluate next
Problem: Would you kindly share the measured polyreactivity (PSR sort gate) for "QVQLVESGGGLVQAGGSLRLSCAASGSTFSAYAMGWYRQAPGKERELVAAITRSGGSTYYADSVKGRFTISRDNAKNTVYLQMNSLKPEDTAVYYCAVRGYLLYYPPYKYEYWGQGTQVTVSS" ?
Solution: high polyreactivity

---

Assay: yeast display, Sf9 membrane polyspecificity reagent, FACS + sequencing; frameworks hold sequencing errors
PROPERTY: polyreactivity (PSR sort gate)

Field: example entries. Status: answers known.
ITEM SEQUENCE: QVQLVESGGGLVQAGGTLRLSCAASGYTFGVYFMGWYRHAPGKERELVAAISGSTYYADSVKGRFTISRDNAKNTVYLQMNSLKQEDTAVYYCAAESYFFSPRTREKFDYWGQGTQVTVSS
polyreactivity (PSR sort gate): low polyreactivity

ITEM SEQUENCE: QVQLVESGGGLVQAGGSLRLSCAASGSTFHIYAMGWYRQAPGKERELVAAINRSGGSTRYADSVKGRFTISRDNAKNTVYLQMNSLKPEDTAVYYCATKRSTGYYWGQGTQVTVSS
polyreactivity (PSR sort gate): high polyreactivity

ITEM SEQUENCE: QVQLLESGGGLVHSGGSLRLSCASSGRIFPSNTMGSYRPAPGKERELVADISFGGGSTSYADSVKGRFTISRDNAKNTVYLQMNRLKPEDTAVYYCNADRDDDYDYWGQGTQVTLSS
polyreactivity (PSR sort gate): low polyreactivity

ITEM SEQUENCE: QFQLVESGGGLVQAGGSLRLSCAASGIIFHIYAMGWYRQAPGKERELVAAISTGSSTYYADSVKGRFTISRDNAKNTVYLQMNSLKPEDTSVSYCNAVSRYLWVKGFDYWGQGTQVTVSS
polyreactivity (PSR sort gate): low polyreactivity

ITEM SEQUENCE: QVQLVESGGGLVQAGGSLRLSCAASGIIFLDNARGWYRQAPGKERELVAAYADSVKGRFTISRDNAKNTVYLQMNSLKPEDTAVYYCNAGWFRNYGFSIVTYDYWGHGTQVTVSS
polyreactivity (PSR sort gate): low polyreactivity

ITEM SEQUENCE: QVQLVESGGGLVQAGGSLRLSCAASGSTFYFYAMGWYRQAPGKERELVATISYSDGSTYYADSVKGRFTISRDNAKNTVYLQMNSLKPEDSAVYYCAKGSNDWVNFGYDYWGQGTQVTVSS
polyreactivity (PSR sort gate): low polyreactivity

ITEM SEQUENCE: QVQLVESGGGLVQAGGSLRLSCAASGLTFYPYAMGWSRQAPGKERELVAAINWSGTTTYYADSVKGRFTISRDNAKNTVYLQMNSLKPEDTAVYYCNADVYYEPTTGYYLWDYDYWGQGTQVTVSS
polyreactivity (PSR sort gate): low polyreactivity

ITEM SEQUENCE: QVHLVESGGGLVQAGGSLRLSCAASGRTFPGYAMGWYRQAPGKERELVATITGNAGSTYYADSVKGRFTISRDNAKNTVYLQMNSLKPEDTAVYYCAAGRRRPYVRAYRGTDYWGQGTQVTVSS
polyreactivity (PSR sort gate): low polyreactivity

ITEM SEQUENCE: QVQLVESGGGLVQAGGSLRLSCAASGSTFTSNAMGWYREAPGKEREFVAAISVGGGITYYADSVKGRFTISRDNAKNTVSLQMNSLKPEDTAVYYCAADGEYPHSEDFEYWGQGTQVNVSS
polyreactivity (PSR sort gate): low polyreactivity

ITEM SEQUENCE: QVQLVESGGGLVQAGGSLRLSCAASVRTFYFYTMGWYRQSPGKERELVATIRWSAGSTYYADSVKGRFTISRDNAKNTVYLQMNSLKPEDTAVYYCNADPFVYSSWQYGYWGQGTQVTVSS
polyreactivity (PSR sort gate): high polyreactivity

Problem: Would you kindly share the measured polyreactivity (PSR sort gate) for "QVQLVESGGGLVQAGGSLRLSCAASGIIFWTYTMGWYRQAPGKERELVAAISSGGSTNYADSVKGRFTISRDNAKNTVYLQMNSLKPEDTAVYYCAKRRQYQRSYNYWGQGTQVTVSS" ?
Solution: low polyreactivity

Problem: Would you kindly share the measured polyreactivity (PSR sort gate) for "QVQLVESGGGLVQAGGSLRLSCAASGITFLRYAMGWYRKSPGKERELVARISSGGRTDYADSVKGRFTISRDNAKNTVYLQMNSLKPEDSAVYYCNATVYEWHTEYDYWGQGTQVTVSS" ?
Solution: high polyreactivity

Problem: Would you kindly share the measured polyreactivity (PSR sort gate) for "QLQLVESGGGLVQAGGSLRLSCAASGSTQGVYAMGSYRQAPGKERELVAAISRSGGRTYYADSVKGRFTISRDNAKNTVYLQMNSLKPEDTAVYYCAADYYLWVYWYDYWGQGTQVTVSS" ?
Solution: high polyreactivity

Problem: Would you kindly share the measured polyreactivity (PSR sort gate) for "QVQLVESGGGLVQAGGSLRLSCAASGFIFRTYAMGWYRQEPGKERELVAAITYSAGSTYYADSVKGRFTISRDNAKNTVYLQMNSLKPEDTADYYCNVRKTWYGYSVTGRYDYWGQGTQVTVSS" ?
Solution: low polyreactivity
